# Test system: dTHP−1 cells
# assayProtocol: Cell viability of dTHP-1 cells with or without LPS
# Assay type: cell-based, human
# conditions: 5 μM (so in the source); LPS 100 ng/mL for 24 h; in % (unit assumed)
# note: boundary value 10 maps to No; Cell viability of dTHP-1 cells, 5 μM, LPS below it maps to Yes

Example entries and their recorded answers appear below.
{"mol": "COc1ccc(CNC(=S)Nc2ccc3ncnc(Nc4cccc(Cl)c4)c3c2)c(OC)c1", "group": "No"}
{"mol": "CC(C)(C)NC(=S)Nc1ccc2ncnc(Nc3cccc(Cl)c3)c2c1", "group": "No"}
{"mol": "S=C(Nc1ccc2ncnc(Nc3cccc(Cl)c3)c2c1)NC1CC1", "group": "No"}
{"mol": "S=C(NCC1CC1)Nc1ccc2ncnc(Nc3cccc(Cl)c3)c2c1", "group": "No"}
{"mol": "Fc1ccc(CNC(=S)Nc2ccc3ncnc(Nc4cccc(Cl)c4)c3c2)c(F)c1", "group": "Yes"}
{"mol": "S=C(Nc1ccc2ncnc(Nc3cccc(Cl)c3)c2c1)NC1CCCC1", "group": "Yes"}

# next molecule below
Problem: Lab note: Cell viability of dTHP-1 cells, 5 μM, LPS threshold 10. Does this molecule come in strictly under it? COc1ccc(CNC(=S)Nc2ccc3ncnc(Nc4cccc(Cl)c4)c3c2)cc1
Result: No

###

Each entry below lists one item and its recorded inhibition at 0.15 µM value.
# targetOrSystem: Recombinant EGFR kinase (Homo sapiens)
# Sequence (P00533 25-1210): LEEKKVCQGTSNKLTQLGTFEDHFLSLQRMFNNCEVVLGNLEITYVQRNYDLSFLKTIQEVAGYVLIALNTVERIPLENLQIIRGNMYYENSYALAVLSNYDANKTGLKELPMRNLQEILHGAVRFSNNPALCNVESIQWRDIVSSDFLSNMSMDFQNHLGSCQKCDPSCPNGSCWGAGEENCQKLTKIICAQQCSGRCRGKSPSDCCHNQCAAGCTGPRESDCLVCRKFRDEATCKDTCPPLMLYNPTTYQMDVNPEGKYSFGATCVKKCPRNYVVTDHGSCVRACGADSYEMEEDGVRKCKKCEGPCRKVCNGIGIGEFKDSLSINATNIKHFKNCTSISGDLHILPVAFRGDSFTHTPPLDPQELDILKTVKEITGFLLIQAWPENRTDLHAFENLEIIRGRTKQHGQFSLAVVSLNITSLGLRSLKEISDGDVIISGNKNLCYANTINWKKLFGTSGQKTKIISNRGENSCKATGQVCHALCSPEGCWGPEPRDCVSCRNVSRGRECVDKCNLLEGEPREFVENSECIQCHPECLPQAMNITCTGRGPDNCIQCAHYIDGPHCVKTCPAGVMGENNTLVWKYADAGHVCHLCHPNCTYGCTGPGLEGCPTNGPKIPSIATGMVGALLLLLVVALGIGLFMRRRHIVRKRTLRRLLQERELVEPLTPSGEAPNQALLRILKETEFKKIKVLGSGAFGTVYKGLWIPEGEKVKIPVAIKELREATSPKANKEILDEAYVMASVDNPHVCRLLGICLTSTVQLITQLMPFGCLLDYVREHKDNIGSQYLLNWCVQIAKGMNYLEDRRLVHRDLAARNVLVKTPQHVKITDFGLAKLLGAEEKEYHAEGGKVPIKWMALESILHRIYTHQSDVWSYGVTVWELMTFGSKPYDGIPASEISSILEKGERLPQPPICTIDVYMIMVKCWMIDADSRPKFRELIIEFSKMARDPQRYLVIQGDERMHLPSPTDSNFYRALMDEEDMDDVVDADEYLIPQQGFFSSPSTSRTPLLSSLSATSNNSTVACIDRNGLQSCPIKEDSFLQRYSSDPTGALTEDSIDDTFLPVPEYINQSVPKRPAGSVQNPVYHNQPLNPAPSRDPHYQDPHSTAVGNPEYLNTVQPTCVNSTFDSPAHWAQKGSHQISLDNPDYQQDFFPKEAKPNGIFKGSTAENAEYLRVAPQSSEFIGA
# assayProtocol: Recombinant EGFR kinase activity
# Assay type: biochemical
# conditions: read-out: Recombinant EGFR Kinase Activity (%inh at 150 nM)
Respond with the bare value in %.

{"compound": "Fc1ccc(CNC(=S)Nc2ccc3ncnc(Nc4cccc(Cl)c4)c3c2)cc1 [Compound 5]", "readoutLabel": "inhibition at 0.15 µM", "scaleUnit": "%", "measurement": 72}
{"compound": "S=C(NCc1cccnc1)Nc1ccc2ncnc(Nc3cccc(Cl)c3)c2c1 [Compound 11]", "readoutLabel": "inhibition at 0.15 µM", "scaleUnit": "%", "measurement": 66}
{"compound": "S=C(Nc1ccc2ncnc(Nc3cccc(Cl)c3)c2c1)NC1CC1 [Compound 17]", "readoutLabel": "inhibition at 0.15 µM", "scaleUnit": "%", "measurement": 36.5}
{"compound": "C#Cc1cccc(Nc2ncnc3ccc(NC(=O)NCc4cccc(Cl)c4)cc23)c1 [Compound 14]", "readoutLabel": "inhibition at 0.15 µM", "scaleUnit": "%", "measurement": 44.5}

Problem: Provide measured inhibition at 0.15 µM on Recombinant EGFR kinase (Homo sapiens) for CC(C)(C)NC(=S)Nc1ccc2ncnc(Nc3cccc(Cl)c3)c2c1 [Compound 20] please.
Result: 1.5

Problem: Send back Recombinant EGFR kinase (Homo sapiens) inhibition at 0.15 µM of O=C(NCc1cccc(Cl)c1)Nc1ccc2ncnc(Nc3cccc(Cl)c3)c2c1 [Compound 12] only.
Result: 34.6

Problem: With Recombinant EGFR kinase (Homo sapiens) as the test system, provide measured inhibition at 0.15 µM for this compound: FC(F)(F)c1ccc(CNC(=S)Nc2ccc3ncnc(Nc4cccc(Cl)c4)c3c2)cc1 [Compound 3]
Result: 70

Problem: Report measured inhibition at 0.15 µM on Recombinant EGFR kinase (Homo sapiens); entry: COc1ccc(CNC(=S)Nc2ccc3ncnc(Nc4cccc(Cl)c4)c3c2)cc1 [Compound 2]
Result: 67

Problem: GET inhibition at 0.15 µM where system = Recombinant EGFR kinase (Homo sapiens) and item = O=C(NC(=S)Nc1ccc2ncnc(Nc3cccc(Cl)c3)c2c1)c1ccccc1 [Compound 16]
Result: 48.9

Problem: Provide inhibition at 0.15 µM, tested on Recombinant EGFR kinase (Homo sapiens), for COc1cccc(CNC(=S)Nc2ccc3ncnc(Nc4cccc(Cl)c4)c3c2)c1 [Compound 8] .
Result: 40

Problem: Please look at O=C(NC(=O)c1ccccc1)Nc1ccc2ncnc(Nc3cccc(Cl)c3)c2c1 [Compound 15] and tell me its recorded inhibition at 0.15 µM on Recombinant EGFR kinase (Homo sapiens).
Result: 26

Origin of the recorded values: paper PMC9322122
